Assay: AUC in CD1 mouse at 10 mg/kg, iv bid
Type: ADME, organism-based
Design: dose 10 mg/kg, route intravenous
Details: plasma
METRIC: AUC
Units required after the number.

Quick one: AUC for O=C(Nc1n[nH]c2cc(C(=O)N[C@H](CN3CCCC3)c3ccccc3)sc12)c1ccc(N2CCOCC2)cc1 ? 9 µM·h

* * *

Assay: Clearance in CD1 mouse at 10 mg/kg, iv bid
Type: ADME, organism-based
Design: dose 10 mg/kg, route intravenous
Settings: in vivo
METRIC: clearance
Units required after the number.

Quick one: clearance for O=C(Nc1n[nH]c2cc(C(=O)N[C@H](CN3CCCC3)c3ccccc3)sc12)c1ccc(N2CCOCC2)cc1 ? 50 mL/min/kg

# credit: ChEMBL document CHEMBL1255180
